Give measured abundance fitness for each item. Keep answers brief.
B1: Formin-binding protein 4, residues 593 to 636; numbered along this chain, Q8N3X1 (parent)
chain: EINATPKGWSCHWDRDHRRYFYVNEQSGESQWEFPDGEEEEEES

# Variants of: B1
# Test: abundance fitness (aPCA) (normalised: wild type 0, dead -1); higher = more abundant; growth selection in yeast, the domain comes from the species named
# Test Settings: Homo sapiens
Give bare numbers.

[[record]]
sequence_input = "EINATPKGWSCHWDRDHRRYFYVNEQSGESQWEFPDGEEEETES [E42T]"
observed_measurement = 0.026

[[record]]
sequence_input = "EINATPKGWSCHWDRDHRRYFYVNEQSQESQWEFPDGEEEEEES [G28Q]"
observed_measurement = -0.337

[[record]]
sequence_input = "EINMTPKGWSCHWDRDHRRYFYVNEQSGESQWEFPDGEEEEEES [A4M]"
observed_measurement = 0.036

[[record]]
sequence_input = "EINATPKGWSCHWDRDHRRYFYVNEQSGESQWEGPDGEEEEEES [F34G]"
observed_measurement = -0.392

[[record]]
sequence_input = "EINATPKGLSCHWDRDHRRYFYVNEQSGESQWEFPDGEEEEEES [W9L]"
observed_measurement = -0.719

[[record]]
sequence_input = "EINATPKGWSCHWDRDHRRYFYVNEQSGESQWEFPDGEEKEEES [E40K]"
observed_measurement = -0.004

[[record]]
sequence_input = "EINATPKGWSCHWDRDHRYYFYVNEQSGESQWEFPDGEEEEEES [R19Y]"
observed_measurement = -0.864

[[record]]
sequence_input = "EINATPKGWSCHWDRDHRRYFYVNEQSGESQWEFPDGEEEEEEL [S44L]"
observed_measurement = -0.194


Please give abundance fitness, item by item, for the list that follows.
1. EINATPKGWSCHWDRDHRRYFYVNEQSGESQWEFPDGEEEEEDS [E43D]
2. EINATPKGESCHWDRDHRRYFYVNEQSGESQWEFPDGEEEEEES [W9E]
3. EINATPTGWSCHWDRDHRRYFYVNEQSGESQWEFPDGEEEEEES [K7T]
4. EINATPKGWSCHWDRDHRRYVYVNEQSGESQWEFPDGEEEEEES [F21V]
5. EINATPKGWSCHWDRDHRRYFYDNEQSGESQWEFPDGEEEEEES [V23D]

-- reply
1. -0.02
2. -0.661
3. -0.456
4. 0.113
5. -0.513

Please give abundance fitness, item by item, for the list that follows.
1. EINATPKGWSCHWDRDHRRYFYVNEQSGESQWEFPEGEEEEEES [D36E]
2. EINATPKGWSCHWDRDHRRYFYVNEQSGESQWQFPDGEEEEEES [E33Q]
3. EINATPKGSSCHWDRDHRRYFYVNEQSGESQWEFPDGEEEEEES [W9S]
4. EINATPKGWYCHWDRDHRRYFYVNEQSGESQWEFPDGEEEEEES [S10Y]
5. EINATPKGWSCHWDRDHRRYFYVNEQSGESQWEFPDGEDEEEES [E39D]
6. EINATPKGWSCGWDRDHRRYFYVNEQSGESQWEFPDGEEEEEES [H12G]
7. EINATPKGWTCHWDRDHRRYFYVNEQSGESQWEFPDGEEEEEES [S10T]
8. EINATPKGWSCHWDRDHRRYFYVNEQSGESQWEFPDSEEEEEES [G37S]

-- reply
-0.113
-0.009
-0.368
-0.521
-0.128
-0.379
-0.288
-0.112

Entry EINATPKGWSCHWDRDHRRYFYVNEVSGESQWEFPDGEEEEEES [Q26V] , abundance fitness reported as -0.19
